Recorded values, source patent US11541041B1.

Target: KRas G12C mutant (Homo sapiens (Human), UniProt P01116, G12C)
Sequence (P01116-2 other isoform, or with tags, fused parts or gaps G12C): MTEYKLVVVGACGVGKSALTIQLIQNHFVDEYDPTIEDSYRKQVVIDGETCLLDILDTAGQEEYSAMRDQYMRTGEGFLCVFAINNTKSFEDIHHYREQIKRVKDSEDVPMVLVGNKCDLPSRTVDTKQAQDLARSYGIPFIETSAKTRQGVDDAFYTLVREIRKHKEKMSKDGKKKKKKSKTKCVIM
Experiment: Ras GTP binding domain inhibition assay
Details: 20 μM compound
property_name: inhibition at 20 µM

- compound: "Cc1ccc(-c2csc3c(O)nc(-c4nccn4C)nc23)c(F)c1"
  result: "1 to 25%"
- compound: "COCCOc1nc(-c2ccncn2)nc2sc(-c3ccccc3)c(-c3ccccc3)c12"
  result: "1 to 25%"
- compound: "O=C(CCCc1cccnc1)N1CCCc2c(O)nc(C3C=CC=CN3)nc21 (centres unmarked)"
  result: "51 to 75%"
- compound: "Cc1cccc(-c2c(C)sc3c(O)nc(-c4nccn4C)nc23)c1"
  result: "1 to 25%"
- compound: "Nc1nc(-c2ccccn2)nc2c(C3CC3)csc12"
  result: "25 to 50%"

---

Each item that follows carries a reported inhibition at 20 µM.
Target: Rho-A (Homo sapiens (Human))
Sequence (P61586 whole entry): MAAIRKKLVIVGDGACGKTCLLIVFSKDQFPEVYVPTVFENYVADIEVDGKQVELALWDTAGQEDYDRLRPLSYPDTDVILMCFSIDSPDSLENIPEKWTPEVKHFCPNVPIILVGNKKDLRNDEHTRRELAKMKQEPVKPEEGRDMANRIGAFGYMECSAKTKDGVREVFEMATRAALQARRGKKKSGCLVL
Assay: Rac and Rho inhibition assay
Format: binding
Conditions: read-out: Rho-A % Inh.
property_name: inhibition at 20 µM

- compound: "COc1cnc(CNC(=O)c2c(C)sc3c(O)nc(-c4ccccn4)nc23)[nH]c1=O"
  property_name: "inhibition at 20 µM"
  result: "1 to 25%"
- compound: "COC(=O)c1c(C)sc2nc(-c3ccccn3)nc(N)c12"
  property_name: "inhibition at 20 µM"
  result: "51 to 75%"
- compound: "COc1ccc(N2CCN(C(=O)c3csc4c(O)cc(-c5ccccn5)cc34)CC2)cc1O"
  property_name: "inhibition at 20 µM"
  result: "76 to 100%"
- compound: "Oc1nc(-c2ccccn2)nc2c(-c3cnc4ccccc4c3)csc12"
  property_name: "inhibition at 20 µM"
  result: "51 to 75%"
- compound: "O=C(c1csc2c(O)nc(-c3ccccn3)nc12)N1CCNC(c2ccc(Cl)cc2)C1 (stereo not drawn)"
  property_name: "inhibition at 20 µM"
  result: "76 to 100%"
- compound: "Oc1nc(-c2ccccn2)nc2c(-c3cc(C(F)(F)F)ccc3F)csc12"
  property_name: "inhibition at 20 µM"
  result: "1 to 25%"
- compound: "O=C(NCCc1cnc(O)nc1)c1csc2nc(-c3ccccn3)nc(N3CCSCC3)c12 [drawing 3752]"
  property_name: "inhibition at 20 µM"
  result: "51 to 75%"
- compound: "COCCNc1nc(-c2nccn2C)nc2sc(-c3ccccc3)c(-c3ccccc3)c12 [drawing 3879]"
  property_name: "inhibition at 20 µM"
  result: "51 to 75%"
- compound: "Cc1c(C(=O)N2CCN(c3ccccc3)CC2)sc2c(O)nc(-c3ccccn3)nc12"
  property_name: "inhibition at 20 µM"
  result: "76 to 100%"
- compound: "Nc1nc(-c2ccccn2)nc2c(CC3CCNCC3)csc12"
  property_name: "inhibition at 20 µM"
  result: "76 to 100%"
- compound: "Cc1cc2nc(-c3ccccn3)nc(O)c2s1 [drawing 3817]"
  property_name: "inhibition at 20 µM"
  result: "76 to 100%"
- compound: "OC[C@H]1O[C@@H](c2csc3c2N=C(c2ccccn2)NC3O)[C@H](O)[C@@H]1O (stereo partly drawn) [drawing 3871]"
  property_name: "inhibition at 20 µM"
  result: "51 to 75%"
- compound: "Oc1nc(-c2ccccn2)nc2c(C3CC3)csc12"
  property_name: "inhibition at 20 µM"
  result: "51 to 75%"
- compound: "CC(O)ONc1nc(-c2nccn2C)nc2sc(-c3ccccc3)c(-c3ccccc3)c12 (stereo not drawn)"
  property_name: "inhibition at 20 µM"
  result: "25 to 50%"
- compound: "COc1cc(-c2csc3c(O)nc(-c4ccccn4)nc23)cnc1C(F)(F)F"
  property_name: "inhibition at 20 µM"
  result: "51 to 75%"
